Data credit: the MegaScale stability set (Tsuboyama et al. 2023)

B1: EEHEE_rd4_0647 (parent)
chain: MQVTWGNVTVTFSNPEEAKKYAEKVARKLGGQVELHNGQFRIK

variants of: B1; assay: folding stability dG (cDNA display proteolysis); higher = more stable; conditions: PBS, room temperature
Exercise: for every item that follows, state its recorded folding stability dG.
One number for each entry, in kcal/mol.

G31Y	2.04
K28G	2.01
L35Q	2.28

Please go through the list and note folding stability dG for each variant.
1. A18T
2. T4P
3. T11K
4. S13M

Given back:
1: 0.656; 2: 0.446; 3: 2.49; 4: 2.6

Please go through the list and note folding stability dG for each variant.
1. Y21I
2. V10D
3. H36G

Given back:
[1.34, 0.472, 1.8]

Please go through the list and note folding stability dG for each variant.
1. K24L
2. V33P
3. A22F
4. K24R
5. N7K

Given back:
2.93
1.22
1.07
2.88
2.72

Please go through the list and note folding stability dG for each variant.
1. K20V
2. E17A
3. Q2L

Given back:
1: 2.71; 2: 2.93; 3: 2.55

Please go through the list and note folding stability dG for each variant.
1. V3P
2. H36P
3. F12W
4. Q39R
5. K28I
6. V10C
7. N37F

Given back:
1: 0.068; 2: 0.326; 3: 1.18; 4: 2.45; 5: 3.18; 6: 3.62; 7: 1.9

Please go through the list and note folding stability dG for each variant.
1. T4R
2. V25N
3. A26Q
4. Y21K

Given back:
1. 2.76
2. 0.417
3. 1.06
4. 0.616

Please go through the list and note folding stability dG for each variant.
1. T4L
2. A22T

Given back:
1. 2.6
2. 0.682

Please go through the list and note folding stability dG for each variant.
1. K43D
2. E23S

Given back:
[1.93, 2.15]
